# Tested Target: Relaxin receptor 1 (Homo sapiens) (UniProt Q9HBX9)
# Sequence (Q9HBX9 whole entry, looked up): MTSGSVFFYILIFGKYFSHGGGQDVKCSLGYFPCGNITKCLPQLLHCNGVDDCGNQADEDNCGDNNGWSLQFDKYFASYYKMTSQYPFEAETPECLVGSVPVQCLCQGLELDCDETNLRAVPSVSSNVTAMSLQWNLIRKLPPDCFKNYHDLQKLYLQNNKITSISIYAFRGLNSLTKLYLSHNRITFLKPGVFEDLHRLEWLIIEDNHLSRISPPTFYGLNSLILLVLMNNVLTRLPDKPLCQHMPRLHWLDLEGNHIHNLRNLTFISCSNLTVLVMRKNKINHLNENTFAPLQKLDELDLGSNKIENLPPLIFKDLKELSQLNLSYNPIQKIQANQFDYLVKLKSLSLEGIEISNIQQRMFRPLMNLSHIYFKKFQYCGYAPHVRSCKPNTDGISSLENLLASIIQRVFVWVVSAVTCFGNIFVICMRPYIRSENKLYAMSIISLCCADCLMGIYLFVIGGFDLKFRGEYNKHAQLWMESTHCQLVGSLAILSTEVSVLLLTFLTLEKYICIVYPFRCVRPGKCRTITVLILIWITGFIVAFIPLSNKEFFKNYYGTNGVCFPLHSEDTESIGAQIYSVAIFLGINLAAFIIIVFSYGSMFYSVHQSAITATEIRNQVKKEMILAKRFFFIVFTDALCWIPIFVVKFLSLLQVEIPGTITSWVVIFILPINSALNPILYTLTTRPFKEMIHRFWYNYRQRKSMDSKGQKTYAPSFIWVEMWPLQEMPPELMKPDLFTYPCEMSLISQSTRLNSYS
# Run Description: qHTS Assay for Agonists of the Relaxin Receptor RXFP1: RXFP1 Hit Validation; further: nearly all actives have a fitted effect of over 65% in size;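 on activation: cAMP rise lowers the TR-FRET signal in lysed cells with PDE4 inhibitor present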
# Measurement Setup: HEK293T-RXFP1 cAMP TR-FRET, 30 min; series mostly up to 115 µM
Records with an inconclusive call do not appear. Calls of active or inactive are those of the source. The call rests on the fitted dose curve; in most records, active means well fitted activation curve with a large enough effect; inconclusive means small, poorly fitted or top-dose-only effect; inactive means no such curve, though single readings can be large or run the other way.
Valid outcomes are listed here; reply with one: t = active, f = inactive

Recorded results for 5 compounds are shown here.
{"columns": ["Compound", "Tested Target", "Label Class"],
 "data": [
  ["CCc1nn(CC(=O)NCCCN2CCOCC2)c(=O)c2cc3sccc3n12", "Relaxin receptor 1 (Homo sapiens) (UniProt Q9HBX9)", "f"],
  ["COc1cc(-c2nnc(SCC(=O)N(C)C3CCS(=O)(=O)C3)o2)cc(OC)c1OC (configuration not stated)", "Relaxin receptor 1 (Homo sapiens) (UniProt Q9HBX9)", "f"],
  ["O=C(Cn1cnc2c(nnn2-c2ccc(F)cc2)c1=O)NCC1CCCO1 (configuration not stated)", "Relaxin receptor 1 (Homo sapiens) (UniProt Q9HBX9)", "t"],
  ["Nc1ncnc2c1ncn2[C@@H]1O[C@H](COS(=O)(=O)O)[C@@H](O)[C@H]1O", "Relaxin receptor 1 (Homo sapiens) (UniProt Q9HBX9)", "t"],
  ["Cc1ccnc(NS(=O)(=O)c2ccc(N3C(=O)c4ccccc4C3=O)cc2)n1", "Relaxin receptor 1 (Homo sapiens) (UniProt Q9HBX9)", "t"]
]}

Query: Can you look up the reported call for `CCCC(=O)Nc1ncnc2c1ncn2[C@@H]1O[C@@H]2OP(=O)(O)OC[C@H]2[C@H]1OC(=O)CCC` for me?
Reply: t

Query: Entry `Cn1c2c(c(=O)n3ncnc13)CCCC2` please
Reply: f

Query: Try this compound too: C=CCNc1ncnc2c1ncn2C1OC(CO)C(O)C1O (configuration not stated)
Reply: f

Query: Next compound: `O=C(Nc1ccccc1C(=O)NC1CCCCC1)c1ccco1`
Reply: f

Query: Next compound: `CCOC(=O)c1sc(=NC(=O)c2ccc(S(=O)(=O)N(C)c3ccccc3)cc2)n(C)c1C`
Reply: t

Query: And `O=[N+]([O-])c1cc2c(c(CSc3nnc4ccccn34)c1)OCOC2` ?
Reply: t

Query: Quick one: `CC(=O)Nc1c2c3c(cccc3n(C)c1=O)C(=O)c1ccccc1-2`
Reply: f

Query: Would you kindly repeat that for `O=C(O)c1cc(-c2ccco2)nc2ccc(Br)cc12` ?
Reply: t

Query: What do you get for CCCc1nc(SCC(=O)NCC2CCCO2)c2c(=O)n(C)c(=O)n(C)c2n1 (configuration not stated) ?
Reply: f

Query: Same lookup for `O=C(Nc1ccccc1C(=O)Nc1ccc(F)cc1)c1ccco1` , please.
Reply: f

Query: Now give it for `O=C(O)CCC(=O)N1CCN(c2nc(-c3ccccc3Cl)c3cc(Br)ccc3n2)CC1` too.
Reply: f

Query: Try this compound next: `COc1ccc(/C=C2/SC(=O)N(CCC(=O)Nc3ccc(C)cc3)C2=O)cc1OC`
Reply: f

Query: What do you get for Cc1cc(C)c(NC(=O)CS(=O)CC(=O)Nc2ccc(F)cc2F)c(C)c1 (configuration not stated) ?
Reply: f

Query: How about `CC1(C)Cc2c(sc3c2c2ncnn2c2nnc(SCC(=O)NCc4ccco4)n32)CO1` ?
Reply: t
